The origin of these recorded values is patent US8343998B2.

- test details: Solubility of compound 1 crystalline free base in different solvents, by HPLC
- Type: physicochemical
- experimental setup: organic solvent or mixture, thermodynamic from solid; solvent Benzyl Alcohol; crystalline free base slurry, room temperature, 4 day solution; read-out: Conc. FB (solubility)
measure: solubility at 4 day (mg/mL)
Kindly provide the numeric value in mg/mL only, without the unit symbol.

Sure, the documented solubility at 4 day for C[C@@H](c1ccc2ncccc2c1)c1nnc2sc(-c3cnn(C)c3)nn12 is 362

====

- test details: Solubility of compound 1 crystalline free base in different solvents, by HPLC
- Type: physicochemical
- experimental setup: organic solvent or mixture, thermodynamic from solid; solvent Dioxane; crystalline free base slurry, room temperature, 4 day solution; read-out: Conc. FB (solubility)
- Protocol: About 10 mg of compound 1, crystalline free base (FB), was loaded into a vial with a magnetic stir bar. About 150 μL of solvent were added to each vial. If compound 1 dissolved completely, more solid was added to the vial and stirring of the resulting slurry was continued at room temperature. The 4 day solution was filtered off using centrifuge filters and diluted in methanol to obtain solubility data by HPLC analysis. […]
measure: solubility at 4 day (mg/mL)
Write the number in mg/mL without appending the unit.

Lookup result for C[C@@H](c1ccc2ncccc2c1)c1nnc2sc(-c3cnn(C)c3)nn12 ; measured solubility at 4 day: 36.8
